Assay: Permeability of the compound at pH 7.4 after 30 mins by PAMPA
Format: ADME
Conditions: read-out: permeability
Entries and their Papp at 0.5 h
Form entry: value (×10⁻⁶ cm/s) — number only.

[
  {
    "STRUCTURE SMILES STRING": "CC(C)Cc1ccc2c(NCCCNCc3ccco3)ccnc2c1",
    "UNIT DESCRIPTOR": "×10⁻⁶ cm/s",
    "Papp at 0.5 h": 23
  },
  {
    "STRUCTURE SMILES STRING": "COc1ccc(F)cc1CNCCCNc1ccnc2cc(-c3ccc(C(F)(F)F)cc3)ccc12",
    "UNIT DESCRIPTOR": "×10⁻⁶ cm/s",
    "Papp at 0.5 h": 237
  }
]

Problem: Param item = `Clc1ccc(Oc2ccc3c(NCCCNCc4ccco4)ccnc3c2)cc1` ; retrieve measured Papp at 0.5 h.
Result: 317

Problem: For the compound shown here, `CCC(CC)c1ccc2c(NCCCNCc3ccco3)ccnc2c1` , give the reported Papp at 0.5 h.
Result: 23

Problem: Could you share which Papp at 0.5 h value was measured for `COc1cccc(CNCCCNc2ccnc3cc(Oc4ccc(Cl)cc4)ccc23)c1O` ?
Result: 317

Problem: Any idea what its Papp at 0.5 h is? The compound is `COc1cccc(Oc2ccc3c(NCCCNCc4cccc(OC)c4O)ccnc3c2)c1`
Result: 317

Problem: What Papp at 0.5 h value was documented for this compound, `COc1ccccc1Oc1ccc2c(NCCCNCc3ccc4c(c3)OCO4)ccnc2c1` ?
Result: 317
